Target: Rap guanine nucleotide exchange factor 3 (Homo sapiens) (UniProt O95398)
Sequence (O95398 whole entry, looked up): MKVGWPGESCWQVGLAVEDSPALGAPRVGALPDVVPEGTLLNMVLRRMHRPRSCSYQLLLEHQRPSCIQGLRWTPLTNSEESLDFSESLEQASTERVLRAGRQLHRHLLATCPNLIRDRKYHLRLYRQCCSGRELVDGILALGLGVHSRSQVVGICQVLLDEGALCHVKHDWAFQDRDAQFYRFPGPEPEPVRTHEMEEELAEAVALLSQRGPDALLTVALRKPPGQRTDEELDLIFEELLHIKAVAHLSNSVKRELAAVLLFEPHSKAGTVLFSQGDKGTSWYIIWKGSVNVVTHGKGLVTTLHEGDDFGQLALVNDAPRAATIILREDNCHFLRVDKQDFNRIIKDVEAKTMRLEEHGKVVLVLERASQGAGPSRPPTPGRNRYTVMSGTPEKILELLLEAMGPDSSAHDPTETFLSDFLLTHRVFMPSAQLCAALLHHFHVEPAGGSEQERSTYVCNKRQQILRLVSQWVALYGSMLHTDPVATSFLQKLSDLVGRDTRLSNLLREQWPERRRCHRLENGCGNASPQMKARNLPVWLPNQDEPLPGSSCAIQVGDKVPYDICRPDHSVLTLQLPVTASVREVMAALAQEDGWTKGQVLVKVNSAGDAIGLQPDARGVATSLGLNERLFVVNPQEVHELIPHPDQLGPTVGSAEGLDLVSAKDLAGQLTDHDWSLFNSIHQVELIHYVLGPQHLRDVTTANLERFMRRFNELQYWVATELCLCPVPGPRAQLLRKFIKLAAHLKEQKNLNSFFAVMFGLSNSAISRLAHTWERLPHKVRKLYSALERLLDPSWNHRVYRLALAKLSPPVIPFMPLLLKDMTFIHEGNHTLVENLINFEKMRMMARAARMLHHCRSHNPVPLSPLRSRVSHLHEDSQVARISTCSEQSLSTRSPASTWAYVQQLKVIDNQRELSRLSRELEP
Assay: Validation qHTS for antagonist of cAMP-regulated guanine nucleotide exchange factor 3 (EPAC1); note: nearly all actives have a fitted effect of over 75% in size
Settings: EPAC1 Rap1B-BODIPY-GDP exchange, fluorescence; series mostly up to 150 µM
The whole screen tested about 16,000 compounds, of which about 120 (0.75%) were called active. Roughly 4% stayed inconclusive and do not appear here. This is one part of a sample in which actives are shown more often than they occur.

{"compound": "Cc1ccc2c(c1)CN(CCC(=O)NCc1cc(C)n(C)n1)CC(C)O2 (stereo not given)", "subject-of-test": "Rap guanine nucleotide exchange factor 3 (Homo sapiens) (UniProt O95398)", "outcome": "inactive"}
{"compound": "Cc1ccc(CN2C[C@H](Sc3ccccn3)C[C@H]2C(=O)Nc2ccc3sc(C)nc3c2)c(C)c1", "subject-of-test": "Rap guanine nucleotide exchange factor 3 (Homo sapiens) (UniProt O95398)", "outcome": "inactive"}
{"compound": "CC(=O)[C@H](CC(C)C)NC(=O)[C@@H](CC(C)C)NC(=O)[C@H](CC(C)C)NC(=O)OCc1ccccc1", "subject-of-test": "Rap guanine nucleotide exchange factor 3 (Homo sapiens) (UniProt O95398)", "outcome": "inactive"}
{"compound": "CC(Oc1ccccc1)C(=O)NCC1Cc2cc(F)cc(-c3ccccn3)c2O1 (stereo not given)", "subject-of-test": "Rap guanine nucleotide exchange factor 3 (Homo sapiens) (UniProt O95398)", "outcome": "inactive"}
{"compound": "O=C(Nc1ccc(Cl)cc1)Nc1ccc(Cl)c(Cl)c1", "subject-of-test": "Rap guanine nucleotide exchange factor 3 (Homo sapiens) (UniProt O95398)", "outcome": "inactive"}
{"compound": "C[C@@H]1NC(=O)OC1c1ccco1 (stereo not given in full)", "subject-of-test": "Rap guanine nucleotide exchange factor 3 (Homo sapiens) (UniProt O95398)", "outcome": "inactive"}
{"compound": "COc1ccc2c3c1O[C@H]1C[C@H](O)C=C[C@@]31CCN(C)C2", "subject-of-test": "Rap guanine nucleotide exchange factor 3 (Homo sapiens) (UniProt O95398)", "outcome": "inactive"}
{"compound": "CCC1C(=O)NCCN1Cc1ccc2c(c1)CN(Cc1cc(OC)ccc1OC)CCO2 (stereo not given)", "subject-of-test": "Rap guanine nucleotide exchange factor 3 (Homo sapiens) (UniProt O95398)", "outcome": "inactive"}
{"compound": "OC(c1ccc2c(c1)CN(Cc1c[nH]c3ccccc13)CCO2)c1ccccn1 (stereo not given)", "subject-of-test": "Rap guanine nucleotide exchange factor 3 (Homo sapiens) (UniProt O95398)", "outcome": "inactive"}
{"compound": "COc1ccc(CNc2ncnc3ccc(-c4ccc(N(C)C)cc4)cc23)c(OC)c1", "subject-of-test": "Rap guanine nucleotide exchange factor 3 (Homo sapiens) (UniProt O95398)", "outcome": "inactive"}

###

Target: Rap guanine nucleotide exchange factor 3 (Homo sapiens)
Assay: Validation qHTS for antagonist of cAMP-regulated guanine nucleotide exchange factor 3 (EPAC1); note: nearly all actives have a fitted effect of over 75% in size
Settings: EPAC1 Rap1B-BODIPY-GDP exchange, fluorescence; series mostly up to 150 µM
In all, about 16,000 compounds went through this assay and about 120 (0.75%) were called active. About 4% were inconclusive and are not listed. The call rests on the fitted dose curve; in most records, active means well fitted inhibition curve with a large enough effect; inconclusive means small, poorly fitted or top-dose-only effect; inactive means no such curve, though single readings can be large or run the other way. For the sample, actives were picked, then their nearest neighbours and some compounds at random.
Possible outcomes: 1 (yes) (active), 0 (no) (inactive)

{"compound": "CC1CN(CC(=O)NCCc2ccncc2)Cc2ccccc2O1 (stereo unspecified)", "class-assignment": "0 (no)"}
{"compound": "CCCOC(=O)c1cc(O)c(O)c(O)c1", "class-assignment": "0 (no)"}
{"compound": "COc1cc(/C=C/C(=O)c2cccs2)cc(OC)c1OC", "class-assignment": "0 (no)"}
{"compound": "CC(=O)CC/C=C(\\C)CC/C=C(\\C)CC/C=C(\\C)CCC=C(C)C", "class-assignment": "0 (no)"}
{"compound": "OCCN1CCN(CCCN2c3ccccc3Sc3ccc(Cl)cc32)CC1", "class-assignment": "0 (no)"}
{"compound": "CN(C)C(=O)CCSC(SCCC(=O)O)c1cccc(/C=C/c2ccc3ccc(Cl)cc3n2)c1 (stereo unspecified)", "class-assignment": "0 (no)"}
{"compound": "COc1cc(=O)n2c(c1C(=O)N(C)Cc1ccsc1)CCN(Cc1c(C)nc3sccn13)CC2", "class-assignment": "0 (no)"}
{"compound": "O=C(Nc1ccc(S(=O)(=O)N2CCOCC2)cc1)c1cc(Cl)ccc1NS(=O)(=O)c1ccc(Cl)s1", "class-assignment": "1 (yes)"}
{"compound": "COc1ccc(-c2nc3cnc(Nc4cccc(OC)c4)nc3n(Cc3cccs3)c2=O)cc1", "class-assignment": "1 (yes)"}
{"compound": "COc1ccc(-c2nc3cnc(N4CCN(C)CC4)nc3n(-c3ccc(OC)cc3)c2=O)cc1", "class-assignment": "0 (no)"}
{"compound": "CS(=O)(=O)Nc1cccc(-c2nccc(NCc3cccs3)n2)c1", "class-assignment": "0 (no)"}
{"compound": "COC(=O)N1CCC[C@@]2(CCN(Cc3nccs3)C2)C1", "class-assignment": "0 (no)"}
{"compound": "COc1ccc2c(c1)[C@@]1(C)CCC[C@](C)(CO)C1CC2 (stereo partly specified)", "class-assignment": "0 (no)"}
{"compound": "COc1ccccc1CCn1c(=O)cnc2cncnc21", "class-assignment": "0 (no)"}
{"compound": "Nc1nc2c(nc(Br)n2C2OC3COP(=O)(O)O[C@@H]3C2O)c(=O)[nH]1 (stereo partly specified)", "class-assignment": "0 (no)"}
{"compound": "O=C(Cn1cccn1)N1CCOc2c(cc(-c3ncc(C(F)(F)F)cc3Cl)cc2OCC2CCCO2)C1 (stereo unspecified)", "class-assignment": "0 (no)"}
{"compound": "CN(Cc1cnc2ccccn12)C1CCN(c2cccc(NC(=O)c3cccnc3)c2)CC1", "class-assignment": "0 (no)"}
{"compound": "C/C(N[C@@H]1CSCC1O)=C1/C(=O)CC2[C@@H]1C2(C)C (stereo partly specified)", "class-assignment": "0 (no)"}
{"compound": "N#C/C(=C\\c1ccc(O)c(O)c1)C(N)=O", "class-assignment": "0 (no)"}
{"compound": "CC(C)c1ccc(CN2CCC3(CCC(CNC(=O)c4ccn(C)n4)O3)CC2)cc1 (stereo unspecified)", "class-assignment": "0 (no)"}
{"compound": "COc1cc([C@@H]2c3cc4c(cc3C(OC3OC5COC(C)OC5C(O)C3O)C3COC(=O)[C@@H]32)OCO4)cc(OC)c1O (stereo partly specified)", "class-assignment": "0 (no)"}
{"compound": "Cc1ccc(-c2ccnc(-n3ncc(C(=O)NCCN4CCOCC4)c3C3CC3)n2)o1", "class-assignment": "0 (no)"}
{"compound": "CC(=O)N[C@@H](CSC/C=C(\\C)CCC=C(C)C)C(=O)O", "class-assignment": "0 (no)"}
{"compound": "CN(C)c1ccc(/C=C2\\C(=O)Nc3ccccc32)cc1", "class-assignment": "0 (no)"}
{"compound": "COc1ccc(CN2CCC(n3cc(C(=O)N4CCCC4)nn3)CC2)c(OC)c1C", "class-assignment": "0 (no)"}
{"compound": "CN(C)c1ccc(/C=C2/C(=O)Nc3ccccc32)cc1", "class-assignment": "0 (no)"}
{"compound": "Cc1c(C(=O)N(C)C(C)C)sc2ncnc(NCCCN3CCOCC3)c12", "class-assignment": "0 (no)"}
{"compound": "Nc1ncnc2c1nc(Br)n2C1OC(CO)C(O)C1O (stereo unspecified)", "class-assignment": "0 (no)"}
{"compound": "CO[C@@H]1[C@@H](O[C@@H]2O[C@H](C)[C@@H](O[C@H]3C[C@@](C)(O)[C@@H](O)[C@H](C)O3)[C@H](N(C)C)[C@H]2O)[C@@H](CC=O)C[C@@H](C)[C@@H](O[C@@H]2CC[C@H](N(C)C)[C@@H](C)O2)/C=C/C=C/C[C@@H](C)OC(=O)C[C@H]1OC(C)=O", "class-assignment": "0 (no)"}
{"compound": "OCC1OC(n2cnc3c(=S)nc[nH]c32)C(O)C1O (stereo unspecified)", "class-assignment": "0 (no)"}
{"compound": "COc1cc(=O)n2c(c1C(=O)N(C)Cc1nonc1C)CCN(Cc1ccsc1)CC2", "class-assignment": "0 (no)"}
{"compound": "COc1cccc(Nc2ncc3nc(-c4ccccc4)c(=O)n(Cc4cccs4)c3n2)c1", "class-assignment": "0 (no)"}
{"compound": "Nc1ncnc2c1nc(Sc1ccc(Cl)cc1)n2[C@H]1OC2COP(=O)(O)O[C@@H]2C1O (stereo partly specified)", "class-assignment": "1 (yes)"}
{"compound": "CC1COC2=C1C(=O)C(=O)c1c2ccc2c1CCCC2(C)C (stereo unspecified)", "class-assignment": "0 (no)"}
{"compound": "CCC1CN(CCNC(=O)c2ccccc2-n2cccn2)Cc2cc(OC)ccc2O1 (stereo unspecified)", "class-assignment": "0 (no)"}
{"compound": "Fc1ccc(Nc2ccnc(-c3ccc4c(c3)OCO4)n2)cc1", "class-assignment": "0 (no)"}
{"compound": "CC(NNC(=O)c1ccccc1)c1ccccc1 (stereo unspecified)", "class-assignment": "0 (no)"}
{"compound": "CC1(C)CC2/C(CO)=C/C=C/[C@](C)(O)CC[C@]21O (stereo partly specified)", "class-assignment": "0 (no)"}
{"compound": "Nc1nc2c(nc(Sc3ccc(Cl)cc3)n2C2OC(CO)C(O)C2O)c(=O)[nH]1 (stereo unspecified)", "class-assignment": "0 (no)"}
{"compound": "Cc1cnc(-n2ncc(C(=O)NCC3COCCO3)c2C2CC2)nc1-c1cccs1 (stereo unspecified)", "class-assignment": "0 (no)"}
{"compound": "CN1CCN(CCCN2c3ccccc3Sc3ccccc32)CC1", "class-assignment": "0 (no)"}

Hello, the source for this data is PubChem BioAssay AID1645882, in case you need it.
